Source of measurements: patent US20060193821

Molecular target: IL-23 (human, p19/p40 heterodimer) (Homo sapiens, UniProt Q9NPF7;P29460 SEQ:20-189,SEQ:23-328)
Sequence (Q9NPF7 20-189, chain 1 of 2): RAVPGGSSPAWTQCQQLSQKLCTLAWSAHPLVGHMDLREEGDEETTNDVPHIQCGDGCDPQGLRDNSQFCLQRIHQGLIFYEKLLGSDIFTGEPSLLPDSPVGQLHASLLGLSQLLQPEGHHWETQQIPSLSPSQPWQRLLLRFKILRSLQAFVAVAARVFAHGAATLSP
Sequence (P29460 23-328, chain 2 of 2): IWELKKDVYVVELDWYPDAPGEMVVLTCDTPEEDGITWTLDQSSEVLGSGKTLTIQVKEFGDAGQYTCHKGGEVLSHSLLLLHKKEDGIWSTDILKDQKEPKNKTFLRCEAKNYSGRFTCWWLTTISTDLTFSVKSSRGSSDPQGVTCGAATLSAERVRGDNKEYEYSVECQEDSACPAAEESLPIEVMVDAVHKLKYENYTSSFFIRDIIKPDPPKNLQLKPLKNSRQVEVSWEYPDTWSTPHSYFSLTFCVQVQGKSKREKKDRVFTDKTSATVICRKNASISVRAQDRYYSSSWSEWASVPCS
Assay: cell_activity; TransAM STAT3
Details: tags: R&D Systems, carrier free
endpoint label: log10 of IC50 (log10 of the value in nM)

>>> data_value("GGGUACGCCGAAAGGCGCUUCCGAAAGGACGUCCGUAAGGGAUACCC (ssRNA, 2'-F C,U) [Type 1.4]")
1.90
>>> data_value("AMX91-C12 (ssRNA, 2'-F C,U) RNA: GGGAAAAGCGAAUCAUACACAAGACGAUAGUAUGACCUUUUGAAAGGCUUCCCGAGCGGUGUUCGCUCCGCCAGAGACCAACCGAGAA")
1.70
>>> data_value("AMX84-C10 (ssRNA, 2'-F C,U) RNA: GGGAAAAGCGAAUCAUACACAAGAGAUGUAUUCAGGCGGUCCGCAUUGAUGUCAGUUAUGCGUAGCUCCGCCAGAGACCAACCGAGAA")
2.40
>>> data_value("AMX91-H7 (ssRNA, 2'-F C,U) RNA: GGGAAAAGCGAAUCAUACACAAGACUUAUCGCCUCAAGGGGGGUAAUAAACCCAGCGUGUGCAUGCUCCGCCAGAGACCAACCGAGAA")
1.70
>>> data_value("AMX86-H9 (ssRNA, 2'-F C,U) RNA: GGGAAAAGCGAAUCAUACACAAGAUGGUUCCCACGUGAAAGUGGCUAGCGAGUACCCCACUUAUGCUCCGCCAGAGACCAACCAAGGG")
2.40
>>> data_value("F11.min2 (ssRNA, 2'-F C,U) RNA: GGACAUACACAAGAUGUGCUUGAGUUAAAUCUCAUCGUCCCCGUUUGGGGAUAUGUC")
1.40
>>> data_value("AMX84-G11 (ssRNA, 2'-F C,U) RNA: GGGAAAAGCGAAUCAUACACAAGAGUGCUUCGUAUGUUGAAUACGACGUUCGCAGGACGAAUAUGCUCCGCCAGAGACCAACCGAGAA")
2.40
>>> data_value("B10.min4 (ssRNA, 2'-F C,U) RNA: GGAGCAUACACAAGAAGUGCUUCAUGCGGCAAACUGCAUGACGUCGAAUAGAUAUGCUCC")
2.70
>>> data_value("AMX91-D9 (ssRNA, 2'-F C,U) RNA: GGGAAAAGCGAAUCAUACACAAGAGUGUAUUACCCCCAACCCAGGGGGACCAUUCGCGUAACAAGCUCCGCCAGAGACCAACCGAGAA")
2.18
>>> data_value("GGAGUACGCCGAAAGGCGCUUCCGAAAGGACGUCCGUAAGGGAUACUCC (ssRNA, 2'-F C,U) [Type 1.5]")
1.90
>>> data_value("AMX84-F11 (ssRNA, 2'-F C,U) RNA: GGGAAAAGCGAAUCAUACACAAGAUGUGCUUGAGUUAAAUCUCAUCGUCCCCGUUUGGGGAUAUGCUCCGCCAGAGACCAACCGAGAA")
2.40
>>> data_value("AMX91-H3 (ssRNA, 2'-F C,U) RNA: GGGAAAAGCGAAUCAUACACAAGACAUUGUGCUUUAUCACGUGGGUGAUAACGACGAAAGUUAUGCUCCGCCAGAGACCAACCGAGAA")
1.70
>>> data_value("AMX91-G9 (ssRNA, 2'-F C,U) RNA: GGGAAAAGCGAAUCAUACACAAGAAUUGUGCUUACAACUUUCGUUGUACCGACGUGUCAGUUAUGCUCCGCCAGAGACCAACCGAGAA")
1.70
>>> data_value("A10.min6 (ssRNA, 2'-F C,U) RNA: GGAGUACGCCGAAAGGCGCUCUGAGUACUCAGCGUCCGUAAGGGAUACUCC")
2.40
>>> data_value("A10.min5 (ssRNA, 2'-F C,U) RNA: GGAGCAUACACAAGAAGUUUUUUGUGCUCUGAGUACUCAGCGUCCGUAAGGGAUAUGCUCC")
2.48
>>> data_value("GGAGUACACAAGAAGUGCUUCCGAAAGGACGUCGAAUAGAUACUCC (ssRNA, 2'-F C,U) [B10.min5]")
1.90
>>> data_value("AMX91-G7 (ssRNA, 2'-F C,U) RNA: GGGAAAAGCGAAUCAUACACAAGACAUGACUGCAUGCUUCGGGAGUAUCUCGGUCCCGACGUUCGCUCCGCCAGAGACCAACCGAGAA")
2.18
